# subjectOfTest: T1, human mesothelin (recombinant, soluble, purified; 40 kDa C-terminal polypeptide of the mesothelin precursor) (human, UniProt Q13421 296-598, limits assumed)
# T1 construct: also called soluble mesothelin
# protocolNotes: SPR (Biacore), Fab on directly immobilized mesothelin
koff values, listed per item
endpointLabel: koff (s⁻¹)

>>> reported("MF-A Fab (Fab, V domains shown, Purified Fab) VH: QVQLVQSGAEVKKPGSSVKVSCKASGGTFSSYYFSWVRQAPGQGLEWMGGIIPKFGSANYAQKFQGRVTITADESTSTAYMELSSLRSEDTAVYYCARRTSMDYWGQGTLVTVSS VL: DIALTQPASVSGSPGQSITISCTGTSSDVGGYNYVSWYQQHPGKAPKLMIYSVSKRPSGVSNRFSGSKSGNTASLTISGLQAEDEADYYCGAWAHMSLGKVFGGGTKLTVLG")
0.079
>>> reported("MOR06638 Fab (Fab, V domains shown, Purified Fab) VH: QVQLVQSGAEVKKPGASVKVSCKASGYTFTGNYINWVRQAPGQGLEWMGIINPHGGDTKYAQKFQGRVTMTRDTSISTAYMELSSLRSEDTAVYYCARWHHGTWIFDYWGQGTLVTVSS VL: DIVLTQPPSVSGAPGQRVTISCSGSSSNIGSNYVSWYQQLPGTAPKLLIYNDNQRPSGVPDRFSGSKSGTSASLAITGLQSEDEADYYCSSWDRADGSYVFGGGTKLTVLG")
0.0063
>>> reported("MOR06626 Fab (Fab, V domains shown, Purified Fab) VH: QVQLVQSGAEVKKPGASVKVSCKASGYTFTGNYINWVRQAPGQGLEWMGIINPTKGWTLYAQKFQGRVTMTRDTSISTAYMELSSLRSEDTAVYYCARWHHGTWIFDYWGQGTLVTVSS VL: DIVLTQPPSVSGAPGQRVTISCSGSSSNIGSNYVSWYQQLPGTAPKLLIYNDNQRPSGVPDRFSGSKSGTSASLAITGLQSEDEADYYCSTYDRRTFSVFGGGTKLTVLG")
0.0012
>>> reported("MOR06657 Fab (Fab, V domains shown, Purified Fab) VH: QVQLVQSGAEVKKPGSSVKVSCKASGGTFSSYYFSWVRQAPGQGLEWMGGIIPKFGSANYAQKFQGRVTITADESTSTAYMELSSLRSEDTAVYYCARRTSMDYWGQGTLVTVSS VL: DIALTQPASVSGSPGQSITISCTGTSSDVGGYNYVSWYQQHPGKAPKLMIYSVSKRPSGVSNRFSGSKSGNTASLTISGLQAEDEADYYCATWDHSQMGKVFGGGTKLTVLG")
0.0055
>>> reported("MF-J Fab (Fab, V domains shown, Purified Fab) VH: QVELVQSGAEVKKPGESLKISCKGSGYSFTNYWIGWVRQMPGKGLEWMGVIMPSDSYTRYSPSFQGQVTISADKSISTAYLQWSSLKASDTAMYYCARYGHGMYGGALDVWGQGTLVTVSS VL: DIVLTQSPATLSLSPGERATLSCRASQSVRSSRLAWYQQKPGQAPRLLIYGASKRATGVPARFSGSGSGTDFTLTISSLEPEDFATYYCQQYYDFPPTFGQGTKVEIKR")
0.0029
>>> reported("MF-226 Fab (Fab, V domains shown, Purified Fab) VH: QVELVQSGAEVKKPGASVKVSCKASGYTFTGNYINWVRQAPGQGLEWMGIINPHGGDTKYAQKFQGRVTMTRDTSISTAYMELSSLRSEDTAVYYCARWHHGTWIFDYWGQGTLVTVSS VL: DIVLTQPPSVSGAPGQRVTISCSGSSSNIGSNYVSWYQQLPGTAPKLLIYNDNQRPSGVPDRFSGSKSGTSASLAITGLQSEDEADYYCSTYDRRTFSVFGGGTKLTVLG")
0.038
